Would you kindly list GI50 for each of these molecules?
- Test system: MOLT-4
- test: NCI tumour cell line growth inhibition, 48 h
The source made the active and inactive calls. Rule as the data show it: active = GI50 up to about 1.1 µM and inactive = higher. Square brackets hold non-standard residues; d marks the D form. Peptide text beside a SMILES is read from it. * marks the point of attachment. ξ: configuration not given here. Propanoyl(3-(4-MeO-Ph)) = COc1ccc(CCC(=O)*)cc1; Thr(3ξ) = CC(O)[C@H](N)C(=O)O; dNMeL = CN[C@H](CC(C)C)C(=O)O; ξLac = CC(O)C(=O)O

Data request, read-out GI50, for `O=S(=O)(Nc1nccs1)c1ccc(Nc2nc(-c3cccs3)nc3ccc(I)cc23)cc1` 14.2 µM (inactive)

Data request, read-out GI50, for COC(=O)[C@@H](NC(=O)[C@@H](CC(C)C)N(C)C(=O)[C@@H]1CCCN1C(=O)C(C)O)C(C)OC(=O)CCc1ccc(OC)cc1 (stereo not given in full) (H-[ξLac]P[dNMeL][Thr(3ξ)](Propanoyl(3-(4-MeO-Ph)))-OMe) 60.5 µM (inactive)

Data request, read-out GI50, for COC(=O)C1(C)C=CC(=O)C2(C)C1C(O)C1OC3CC(c4ccoc4)C(C)=C3C1(C)C2CC(=O)O (stereo not given) > 100 µM (inactive)

Data request, read-out GI50, for CC(/C=C/C(=O)NO)=C\C(C)C(=O)c1ccc(N(C)C)cc1 (stereo not given) < 0.0135 µM (active)

Data request, read-out GI50, for `COc1cc2c(c3c1c(=O)c1ccccc1n3C)C=C([N+](=O)[O-])C(C)(C)O2` 0.0861 µM (active)

Data request, read-out GI50, for CCC1(OC(C)=O)C(=O)OCc2c1cc1n(c2=O)Cc2cc3ccccc3nc2-1 (stereo not given) 0.264 µM (active)

Data request, read-out GI50, for `NCC(=O)Nc1ccc(Cl)cc1C(=O)c1ccc[nH]1` 35.8 µM (inactive)

Data request, read-out GI50, for CC(NS(=O)(=O)c1ccc(Cl)cc1)C(=O)O (stereo not given) > 100 µM (inactive)

Data request, read-out GI50, for `O=C(CCc1cc(O)ccc1O)OCCc1ccccc1` 1.36 µM (inactive)

Data request, read-out GI50, for CCN(CC)CC1c2ccccc2C(CNc2ccccc2)N1C (stereo not given) 80.4 µM (inactive)

###

- System: SK-MEL-2
- test: NCI tumour cell line growth inhibition, 48 h
Activity calls are given as the source filed them. Cut-off read from the data, not from the text of the source: active = GI50 up to about 1.1 µM and inactive = higher.
Would you kindly list GI50 for each of these molecules?

Data request, read-out GI50, for `O=C(O)/C=C\C(=O)Nc1ccc(S(=O)(=O)c2ccc(NC(=O)/C=C\C(=O)O)cc2)cc1` > 100 µM (inactive)

Data request, read-out GI50, for CC1(C)C(O)OC(O)C1(C)C (stereo unspecified) 89.7 µM (inactive)

Data request, read-out GI50, for `Cc1ccc2cccc(-c3cccc4ccccc34)c2n1` 15 µM (inactive)

Data request, read-out GI50, for `Cc1nc2c(=O)n(-c3ccccc3)c3ccccc3c2o1` > 100 µM (inactive)

Data request, read-out GI50, for CC(=S)NC1C(Oc2ccc3c(C)cc(=O)oc3c2)OC(CO)C(O)C1O (stereo unspecified) > 100 µM (inactive)

Data request, read-out GI50, for O=C1OCCC1C(O)C1c2ccccc2-c2ccccc21 (stereo unspecified) > 100 µM (inactive)
